Data provenance: PubChem BioAssay (EPA / NIEHS)

target: Heat shock factor protein 1 (Homo sapiens); test: ATG_HSE_CIS: Attagene CIS-FACTORIAL HepG2 Assay for human Heat Shock Transcription Factor 1 (HSE) (AID 2282953); settings: HepG2 HSE cis-reporter, Attagene RNA transcription; actives raise or lower the signal
Calls of active or inactive are those of the source. The calls were made as follows: active = hit-call score of the fitted dose curve at least 0.9, where 1 is the maximum; inactive = score below 0.9.
Choose one outcome from this list and give only that: active, inactive

Prompt: Can you look up the reported call for `CC(C)(C)c1cc(CCC(=O)OCC(COC(=O)CCc2cc(C(C)(C)C)c(O)c(C(C)(C)C)c2)(COC(=O)CCc2cc(C(C)(C)C)c(O)c(C(C)(C)C)c2)COC(=O)CCc2cc(C(C)(C)C)c(O)c(C(C)(C)C)c2)cc(C(C)(C)C)c1O` for me?
Completion: inactive

Prompt: Can you look up the reported call for `CCCCCCCCn1sc(Cl)c(Cl)c1=O` for me?
Completion: active

Prompt: Can you look up the reported call for CC1=CC2C3C=CC(C3)C2C1C (stereo unspecified) for me?
Completion: inactive

Prompt: Can you look up the reported call for `O=C(O)CCC(F)(F)C(F)(F)C(F)(F)C(F)(F)C(F)(F)C(F)(F)C(F)(F)F` for me?
Completion: inactive

Prompt: Can you look up the reported call for `OCCCCC(F)(F)C(F)(F)C(F)(F)C(F)(F)F` for me?
Completion: inactive

Prompt: Can you look up the reported call for `O=C(O)C(F)(F)OC(F)(F)C(F)(F)OC(F)(F)C(F)(F)OC(F)(F)F` for me?
Completion: active

Prompt: Can you look up the reported call for CCC(Cc1c(I)cc(I)c(N)c1I)C(=O)O (stereo unspecified) for me?
Completion: inactive

Prompt: Can you look up the reported call for `CCN(CC)c1ccc(N=Nc2ccccc2)cc1` for me?
Completion: active

Prompt: Can you look up the reported call for `NC(=O)C(F)(F)C(F)(F)C(F)(F)C(F)(F)C(F)(F)C(F)(F)C(F)(F)F` for me?
Completion: inactive

Prompt: Can you look up the reported call for `N#CCCOCCC#N` for me?
Completion: inactive

Prompt: Can you look up the reported call for `CCOCOCC` for me?
Completion: inactive
